setup.conditions: in n-hexane, 307.13 K
property: solubility (mole fraction)
# respond with the number and nothing more

Return reported solubility (mole fraction). Input compound: COc1cc(CNC(=O)CCCCCCC(C)C)ccc1O 0.000269

----------
setup.conditions: in ethyl acetate, 302.07 K
property: solubility (mole fraction)
Just the number, please.

Identify solubility (mole fraction) associated with the compound COc1cc(CNC(=O)CCCCCCC(C)C)ccc1O 0.307

----------
setup.conditions: in n-pentane, 299.27 K
property: solubility (mole fraction)
Lab note: jot down the number only; don't add units.

Report solubility (mole fraction) for COc1cc(CNC(=O)CCCCCCC(C)C)ccc1O 0.00013

----------
setup.conditions: in n-heptane, 311.04 K
property: solubility (mole fraction)

Output measured solubility (mole fraction) for this item: COc1cc(CNC(=O)CCCCCCC(C)C)ccc1O 0.00048

----------
setup.conditions: in n-pentane, 297.26 K
property: solubility (mole fraction)
Give only the figure.

Kindly indicate its recorded solubility (mole fraction). Item: COc1cc(CNC(=O)CCCCCCC(C)C)ccc1O 0.000115

----------
setup.conditions: in n-hexane, 298.73 K
property: solubility (mole fraction)
// return just the number, without any unit appended

Give reported solubility (mole fraction) value for COc1cc(CNC(=O)CCCCCCC(C)C)ccc1O 0.000159

----------
setup.conditions: in n-heptane, 313.41 K
property: solubility (mole fraction)
Field format: numeric only.

Answer with reported solubility (mole fraction) of COc1cc(CNC(=O)CCCCCCC(C)C)ccc1O 0.000549

----------
setup.conditions: in acetone, 304.58 K
property: solubility (mole fraction)
No unit in the answer, only the number.

Using known records, supply solubility (mole fraction) for COc1cc(CNC(=O)CCCCCCC(C)C)ccc1O 0.249

----------
setup.conditions: in water, 325.66 K
property: solubility (mole fraction)
Please reply with the value in numeric form only.

Write down solubility (mole fraction) measured for item COc1cc(CNC(=O)CCCCCCC(C)C)ccc1O 6.14e-05

----------
setup.conditions: in water, 326.29 K
property: solubility (mole fraction)
Reply with the value as a number alone.

Fill in reported solubility (mole fraction) for this entry: COc1cc(CNC(=O)CCCCCCC(C)C)ccc1O 7.19e-05

----------
setup.conditions: in ethanol, 311.23 K
property: solubility (mole fraction)
Returns: the value as a bare number; no unit string appended.

Report solubility (mole fraction) for COc1cc(CNC(=O)CCCCCCC(C)C)ccc1O 0.258

Data provenance: BigSolDB 2.1
